Data origin: patent US20140106387A1

# System: NQO1
# test_name: NAD(P)H recycling assay (decrease of NAD(P)H by NQO1-activating candidate compounds)
# Assay type: biochemical
# measurement_parameters: relative amount of NAD(P)H, amount in the absence of the NQO1 activator taken to be 100
reported_endpoint: Residual amount of NAD(P)H(%)

- molecule: "CC1=CC(=O)c2ccccc2C1=O [Menadione, 2-Methyl-1,4-naphthoquinone, reference compound]"
  target_desc: "NQO1"
  reported_endpoint: "Residual amount of NAD(P)H(%)"
  recorded_number: 85.65
- molecule: "CC1CC2=C(O1)c1ccccc1C(=O)C2=O (stereo not drawn)"
  target_desc: "NQO1"
  reported_endpoint: "Residual amount of NAD(P)H(%)"
  recorded_number: 49.73
- molecule: "CC(C)C1=CC2OC3=C(CC2(C)CC1)C(=O)c1ccccc1C3=O (stereo not drawn)"
  target_desc: "NQO1"
  reported_endpoint: "Residual amount of NAD(P)H(%)"
  recorded_number: 99.45
- molecule: "CC1(C)CC2=C(O1)c1ccccc1C(=O)C2=O"
  target_desc: "NQO1"
  reported_endpoint: "Residual amount of NAD(P)H(%)"
  recorded_number: 45.9
- molecule: "CC1(C)CCC2=C(O1)C(=O)c1ccccc1C2=O"
  target_desc: "NQO1"
  reported_endpoint: "Residual amount of NAD(P)H(%)"
  recorded_number: 95
- molecule: "CC(C)C1=CC2OC3=C(CC2(C)CC1)C(=O)C(=O)c1ccccc13 (stereo not drawn)"
  target_desc: "NQO1"
  reported_endpoint: "Residual amount of NAD(P)H(%)"
  recorded_number: 77.55
- molecule: "CC(C)=CC1(C)CCC2=C(O1)C(=O)c1ccccc1C2=O (stereo not drawn)"
  target_desc: "NQO1"
  reported_endpoint: "Residual amount of NAD(P)H(%)"
  recorded_number: 99.74
- molecule: "CC1OC2=C(C(=O)C(=O)c3ccccc32)C1(C)C (stereo not drawn)"
  target_desc: "NQO1"
  reported_endpoint: "Residual amount of NAD(P)H(%)"
  recorded_number: 64.39
- molecule: "COC1=C(OC)C(=O)C(C/C=C(\\C)CC/C=C(\\C)CC/C=C(\\C)CC/C=C(\\C)CC/C=C(\\C)CC/C=C(\\C)CC/C=C(\\C)CC/C=C(\\C)CC/C=C(\\C)CCC=C(C)C)=C(C)C1=O [CoQ10, reference compound]"
  target_desc: "NQO1"
  reported_endpoint: "Residual amount of NAD(P)H(%)"
  recorded_number: 101.69
